Ki: recorded values
Target: UniProt:P28335
Sequence (P28335 33-458): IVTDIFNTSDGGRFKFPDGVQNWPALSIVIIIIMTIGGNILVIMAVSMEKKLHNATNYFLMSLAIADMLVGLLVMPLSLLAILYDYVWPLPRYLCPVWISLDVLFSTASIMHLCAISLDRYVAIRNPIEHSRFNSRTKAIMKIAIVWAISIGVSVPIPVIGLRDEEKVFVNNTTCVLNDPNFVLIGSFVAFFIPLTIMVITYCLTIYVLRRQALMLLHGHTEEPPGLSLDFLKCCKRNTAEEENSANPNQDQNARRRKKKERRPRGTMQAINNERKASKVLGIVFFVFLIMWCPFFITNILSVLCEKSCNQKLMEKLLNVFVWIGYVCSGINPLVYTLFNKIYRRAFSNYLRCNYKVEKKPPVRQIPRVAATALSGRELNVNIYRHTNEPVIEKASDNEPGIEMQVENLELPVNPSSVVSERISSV
Recorded metric: Ki (nM)

- Compound: "COc1cc(OC(C)C)c(OC)cc1CC(C)N (stereo not shown) [MIPM, 2,5-dimethoxy-4-isopropoxyamphetamine]"
  Unit descriptor: "nM"
  Reported value: 9030
- Compound: "C=CCOc1cc(OC)c(CCN)cc1OC [2C-O-16, 4-allyloxy-2,5-dimethoxyphenethylamine]"
  Unit descriptor: "nM"
  Reported value: 470
- Compound: "C=CCOc1cc(OC)c(CC(C)N)cc1OC (stereo not shown) [MALM, 4-allyloxy-2,5-dimethoxyamphetamine]"
  Unit descriptor: "nM"
  Reported value: 900
- Compound: "COc1cc(OCC(F)(F)F)c(OC)cc1CCN [2C-O-22]"
  Unit descriptor: "nM"
  Reported value: 1900
